experiment: Volume of distribution at steady state in Sprague-Dawley rat at 2 mg/kg, iv by LC/MS/MS analysis; format: ADME, organism-based; set-up: dose 2 mg/kg, route intravenous; details: in vivo, read-out: Vdss
Quantity: Vd (L/kg)
One number for each entry, in L/kg.

Request the reported Vd associated with `CCCC1=C(C(=O)OCC)[C@H](c2ccnc3ccccc23)C(C#N)=C(C)N1` 0.42

----------
Target: UniProtKB P10275
Sequence (P10275 whole entry): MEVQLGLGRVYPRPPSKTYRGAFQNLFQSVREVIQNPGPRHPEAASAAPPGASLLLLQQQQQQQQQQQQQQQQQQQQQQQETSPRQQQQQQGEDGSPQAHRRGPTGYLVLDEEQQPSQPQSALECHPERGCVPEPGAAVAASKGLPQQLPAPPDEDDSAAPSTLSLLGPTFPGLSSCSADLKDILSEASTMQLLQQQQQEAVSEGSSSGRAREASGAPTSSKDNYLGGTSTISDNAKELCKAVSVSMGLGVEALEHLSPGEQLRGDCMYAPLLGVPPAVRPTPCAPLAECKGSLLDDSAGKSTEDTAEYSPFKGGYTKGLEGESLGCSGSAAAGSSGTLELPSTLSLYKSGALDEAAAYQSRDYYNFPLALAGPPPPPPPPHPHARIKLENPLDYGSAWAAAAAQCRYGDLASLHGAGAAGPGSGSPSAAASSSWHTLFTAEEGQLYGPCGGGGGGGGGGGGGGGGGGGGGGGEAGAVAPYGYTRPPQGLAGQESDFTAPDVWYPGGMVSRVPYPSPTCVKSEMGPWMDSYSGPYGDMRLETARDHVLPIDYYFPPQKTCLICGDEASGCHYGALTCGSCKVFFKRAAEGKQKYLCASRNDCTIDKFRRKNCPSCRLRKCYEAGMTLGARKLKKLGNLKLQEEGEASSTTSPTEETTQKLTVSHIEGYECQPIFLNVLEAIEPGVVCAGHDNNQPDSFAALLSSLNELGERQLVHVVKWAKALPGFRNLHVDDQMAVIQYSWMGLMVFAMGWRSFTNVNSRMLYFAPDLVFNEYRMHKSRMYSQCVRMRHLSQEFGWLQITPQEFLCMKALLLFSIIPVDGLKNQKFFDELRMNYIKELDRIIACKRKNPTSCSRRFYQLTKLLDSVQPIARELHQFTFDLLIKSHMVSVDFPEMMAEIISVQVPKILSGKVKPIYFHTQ
Quantity: IC50 (nM)
Give bare numbers, in nM.

COC(=O)C1=C(C)NC(C)=C(C(=O)OC(C)(C)C)[C@@H]1c1cccc([N+](=O)[O-])c1 | 1270

From here, focus on the item given below.
Request the reported IC50 associated with `CCCC1=C(C(=O)OCC)[C@H](c2ccnc3ccccc23)C(C#N)=C(C)N1` 730

----------
target: Voltage-gated L-type calcium channel (Rattus norvegicus, UniProt P22002+Q02485+P27732); assay: Inhibition of L-type calcium channel in rat A10 cells assessed as inhibition of depolarization-induced increase in calcium flux after 10 mins by FLIPR assay
Quantity: IC50

Consider the reported IC50 for these compounds:
CC1=C(C#N)C(c2ccc(F)cc2Cl)C(C(=O)OC(C)(C)C)=C(C)N1 (racemic) | > 1550 nM
COC(=O)C1=C(C)NC(C)=C(C#N)[C@H]1c1ccnc2ccccc12 | 7730 nM
COC(=O)C1=C(CCl)NC(C)=C(C#N)[C@@H]1c1ccc(F)cc1Cl | 570 nM
COC(=O)C1=C(C)NC(C)=C(C(=O)OC(C)(C)C)C1c1cccc([N+](=O)[O-])c1 (racemic) | > 20 nM
COC(=O)[C@@H]1CC2=CC(=O)CC[C@]2(C)[C@@]23O[C@@H]2C[C@@]2(C)[C@@H](CC[C@@]24CCC(=O)O4)[C@H]13 | > 5000 nM

From here, focus on the item given below.
Request the reported IC50 associated with `CCCC1=C(C(=O)OCC)[C@@H](c2ccnc3ccccc23)C(C#N)=C(C)N1` 1330 nM
